Provide the recorded Activity for the entries that follow.
- Assay protocol: Effect on total ATP level in human Friedreich's ataxia lymphocytes at 10 uM after 48 hrs by bioluminescence assay relative to control
- Type: functional
Answer format: numeric, % implied, no suffix.

Provide only the value of recorded Activity for CCCCCCCCCCCCCCCCCCc1nc(N(C)C)nc(OC)c1O
102

Provide only the value of recorded Activity for CCCCCCCCCCc1nc(N(C)C)nc(OC)c1O
87

Provide only the value of recorded Activity for CCCCCCCCCCC1=C(C)C(=O)C(OC)=C(OC)C1=O
76

Provide only the value of recorded Activity for Cc1nc(N(C)C)nc(CCCCCCCCCCO)c1O
46

Provide only the value of recorded Activity for COc1nc(N(C)C)nc(CCCCCCCCCCOCC23CC4CC(CC(C4)C2)C3)c1O
103

Provide only the value of recorded Activity for COC1=C(OC)C(=O)C(CCCCCCCCCCO)=C(C)C1=O
46

Provide only the value of recorded Activity for CCCCCCCCCCCCCCc1nc(N(C)C)nc(OC)c1O
97

Provide only the value of recorded Activity for COc1nc(N(C)C)nc(CCCCCCCCCCO)c1O
66

Provide only the value of recorded Activity for CCCCCCCCCCCCCCCCc1nc(N(C)C)nc(OC)c1OC(C)=O
101

Provide only the value of recorded Activity for CCCCCCCCCCCCCCCCc1nc(N(C)C)nc(OC)c1O
96
